- target: Nicotinamide N-methyltransferase (Homo sapiens)
- protocolDetails: Confirmatory Screen for Target Class Profiling of Small Molecule Inhibitors of Methyltransferases (AID 1745852)
- conditions: MTase-Glo luminescence, SAH detection, recombinant enzyme; measured here: NNMT max response; stronger effect = lower value
Reported activity is given for each of the following compounds.
Numbers only; they are read as %.

{"compoundStructure": "Clc1ccc(Cn2c(Cc3ccccc3)nc3ccccc32)cc1", "readoutUnit": "%", "activity": -51}
{"compoundStructure": "Cc1ccc(C)c(-c2cc(C(F)(F)F)nn2-c2ccc(S(N)(=O)=O)cc2)c1", "readoutUnit": "%", "activity": -48.6}
{"compoundStructure": "Cc1[nH]c(/C=C2\\C(=O)Nc3ccc(S(=O)(=O)N(C)c4cccc(Cl)c4)cc32)c(C)c1C(=O)N1CCN(C)CC1", "readoutUnit": "%", "activity": -49.1}

Turning now to a further record.
Query: Reported activity for COc1c2c(c(C)c3c1C(=O)OC3)O[C@@]1(C)C[C@@H](OC(C)=O)[C@]34O[C@](OC)(CC[C@]3(C)[C@H]1C2)OC4(C)C : what is it?
Response: -50.2

====

- System: SKOV3
- protocolDetails: Primary qHTS to identify gynecologic anti-cancer compounds using libraries of approved drugs and bioactive compounds (AID 1345084); note: nearly all actives have a fitted effect of over 55% in size
- conditions: Gynecologic cancer cell panel viability, ATPlite luminescence, 48 h; series mostly up to 57.5 µM
Results filed as inconclusive are left out. Activity calls are given as the source filed them. The call rests on the fitted dose curve; in most records, active means well fitted cell-killing curve with a large enough effect; inconclusive means small, poorly fitted or top-dose-only effect, or effect the other way; inactive means flat fitted curve, though single readings scatter.
Hi! Could you answer with just one of these? true (1) = active, false (0) = inactive

Reference set (5 entries):
{"molecule": "Cc1cc(F)c(C(=O)Nc2cccc(-c3nncn3C(C)C)n2)cc1-n1cnc(C2CC2)c1", "assignedClass": "false (0)"}
{"molecule": "Fc1ccc(CN2CCC(Nc3ccc(C(F)(F)F)nn3)CC2)cc1F", "assignedClass": "false (0)"}
{"molecule": "CN(CC1COCCO1)S(=O)(=O)Nc1ccc2ccc3ncc(-c4cnn(C)c4)cc3c(=O)c2c1 (centres undefined)", "assignedClass": "true (1)"}
{"molecule": "C=C1C(=O)OC2/C=C(\\C)CC/C=C(\\C=O)C(OC)C(OC(=O)C(C)CC)C12 (centres undefined)", "assignedClass": "false (0)"}
{"molecule": "COc1ccc(C#Cc2ccc(C(=O)N3CCC[C@@H](O)C3)c(F)c2)cc1", "assignedClass": "true (1)"}

Query: State the result this test recorded for C=C1CC(=O)C2OC2(C)CC2OC(=O)C(=C)C2C(O)C1OC(=O)/C(C)=C\C (centres undefined) .
Response: false (0)

Query: State the result this test recorded for C=C1C(=O)OC2/C=C(\CO)CC/C=C(\C=O)C(O)C(OC(=O)C(C)CC)C12 (centres undefined) .
Response: false (0)

Query: State the result this test recorded for CC(=O)C1(C)CCC2C3C=C(C)C4=CC(=O)CCC4(C)C3CCC21C (centres undefined) .
Response: false (0)

Query: State the result this test recorded for COC(=O)c1ccc2c(c1)nc(NC(=O)c1ccccc1)n2CCCc1ccccc1 .
Response: false (0)

Query: State the result this test recorded for O=C(Nc1ccn(Cc2ccc(O)cc2C(F)(F)F)n1)c1c(F)cccc1F .
Response: false (0)

Query: State the result this test recorded for Cc1cnn(-c2ccccc2)c1NC(=O)COCc1ccccc1 .
Response: false (0)

Query: State the result this test recorded for COc1ccc(S(=O)(=O)N2CCC[C@H]2C(=O)Nc2cc(C)cc(C)c2)cc1 .
Response: false (0)

Query: State the result this test recorded for C=C1CC2OC(=O)C(=C)C2C(OC(=O)/C(C)=C\C)CC2(C)OC1=CC2=O (centres undefined) .
Response: true (1)

Query: State the result this test recorded for COc1ccc(CN2CCN(C(=O)CCNC(=O)c3ccc(C(C)(C)C)cc3)CC2)cc1 .
Response: false (0)
